Tested on: CYP3A4
assay_protocol: Cocktail method in rats: pharmacokinetics of probe drug midazolam (CYP3A4 activity)
condition_description: male, Wistar, rat, plasma, iv, 5 mg/kg, AUC0~t, positive group (phenobarbital 50 mg/kg ip 7 days), midazolam 5 mg/kg iv
metric: AUC(0-t)
State the value with its unit after it.

Prompt: Output measured AUC(0-t) for this item: "Cc1ncc2n1-c1ccc(Cl)cc1C(c1ccccc1F)=NC2"
Response: 653 ng·h/mL

---

measured_target: CYP1A2 (Rattus norvegicus)
Construct: from tissue; host or cells: whole animal, male Wistar rats (in vivo pharmacokinetics)
Sequence (P04799 whole entry): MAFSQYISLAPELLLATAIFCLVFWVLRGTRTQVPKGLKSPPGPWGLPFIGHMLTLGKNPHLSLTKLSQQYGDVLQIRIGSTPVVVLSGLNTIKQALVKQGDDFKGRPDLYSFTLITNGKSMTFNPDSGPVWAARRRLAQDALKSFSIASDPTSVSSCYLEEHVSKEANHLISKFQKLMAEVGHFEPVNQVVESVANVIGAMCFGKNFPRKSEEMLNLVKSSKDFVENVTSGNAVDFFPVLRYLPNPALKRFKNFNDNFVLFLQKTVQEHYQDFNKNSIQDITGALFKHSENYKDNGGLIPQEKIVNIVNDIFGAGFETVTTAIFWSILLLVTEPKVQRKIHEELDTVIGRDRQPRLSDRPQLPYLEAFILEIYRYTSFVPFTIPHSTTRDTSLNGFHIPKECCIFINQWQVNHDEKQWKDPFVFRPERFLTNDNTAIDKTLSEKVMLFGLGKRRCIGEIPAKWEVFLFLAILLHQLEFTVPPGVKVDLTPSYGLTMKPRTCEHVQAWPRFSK
assay_protocol: Cocktail method in rats: pharmacokinetics of probe drug theophylline (CYP1A2 activity)
Type: in vivo
condition_description: male, Wistar, plasma, iv, 10 mg/kg, Digeda group (Digeda-4 decoction 600 mg/kg ig 14 days), theophylline 10 mg/kg iv
metric: AUC(0-inf) (µg·h/mL)
Quick reminder: number only, in µg·h/mL, skip the unit.

Prompt: Output measured AUC(0-inf) for this item: "Cn1c(=O)c2[nH]cnc2n(C)c1=O"
Response: 569
